# target.system: DabiOBP5 (Dioryctria abietella, UniProt A0A8E6HS34)
# Sequence (A0A8E6HS34 19-139): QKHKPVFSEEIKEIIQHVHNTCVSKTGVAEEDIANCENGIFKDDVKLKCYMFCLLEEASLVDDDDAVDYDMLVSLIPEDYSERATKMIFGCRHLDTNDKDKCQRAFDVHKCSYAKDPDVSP
# method.description: Competitive fluorescence binding assay with 1-NPN probe, recombinant DabiOBP5
# reported.conditions: ligand at 20 μM; DabiOBP5/1-NPN each 2 μM; Tris-HCl pH 7.4; NB = no binding; read-out: OBP5 F.D. (%) fluorescence displacement percent
Rule: True for inhibition at 20 µM not less than 30%, False for anything less.

Field: example entries. Status: answers known.
compound	target.system	qualitative.label
CCCCCCCCCCCCCCCCCCCCCCC	DabiOBP5 (Dioryctria abietella, UniProt A0A8E6HS34)	True
CC1(C)[C@H](C(=O)O[C@H](C#N)c2cccc(Oc3ccccc3)c2)[C@@H]1C=C(Br)Br	DabiOBP5 (Dioryctria abietella, UniProt A0A8E6HS34)	False
CCCCC(C)=O	DabiOBP5 (Dioryctria abietella, UniProt A0A8E6HS34)	True
CCCCCCCCCC	DabiOBP5 (Dioryctria abietella, UniProt A0A8E6HS34)	False
CCCCCCCCCCCCO	DabiOBP5 (Dioryctria abietella, UniProt A0A8E6HS34)	True
CCCCCC(C)O (stereo not shown)	DabiOBP5 (Dioryctria abietella, UniProt A0A8E6HS34)	False
CCCCCCCCCCCCCCCCO	DabiOBP5 (Dioryctria abietella, UniProt A0A8E6HS34)	True
CC(C)=CCO	DabiOBP5 (Dioryctria abietella, UniProt A0A8E6HS34)	True
CCCCCCCCCCCC	DabiOBP5 (Dioryctria abietella, UniProt A0A8E6HS34)	True
OCCc1ccccc1	DabiOBP5 (Dioryctria abietella, UniProt A0A8E6HS34)	True

Exercise: Hi team, for CCCCCCCCCCCCCC , is the recorded inhibition at 20 µM at or above 30%?
Solution: False

Exercise: Hi team, for CCCCCCCCCCCO , is the recorded inhibition at 20 µM at or above 30%?
Solution: True

###

# target.system: DabiOBP5 (Dioryctria abietella)
# method.description: Competitive fluorescence binding assay with 1-NPN probe, recombinant DabiOBP5
# reported.conditions: competitive displacement of 1-NPN; three replicates; mean ± SE; listed as ethyl-(2E,4Z)-decadienoate; read-out: OBP5 Ki (dissociation constant)
# Method: In the binding assays, we selected 100 compounds derived from host/non-host plants and man-made insecticides widely used for the control of lepidopteran pests, representing 88 general odorants (21 esters, 21 alcohols, 14 aldehydes, 13 alkenes, seven ketones, 11 alkanes and one acid) and 12 insecticides. […] In order to measure the binding properties of the DabiOBPs to the 100 ligands, competitive binding assays were performed on a RF5301PC fluorescence spectrophotometer (Shimadzu, Japan). […]
observation.type: Ki

Exercise: What value of Ki has been reported for the following molecule? CCCCC/C=C\C=C\C(=O)OCC [Ethyl-(2E,4Z)-decadienoate]
Solution: < 13 µM

###

# target.system: DabiOBP5 (Dioryctria abietella)
# method.description: Competitive fluorescence binding assay with 1-NPN probe, recombinant DabiOBP5
# reported.conditions: ligand at 20 μM; DabiOBP5/1-NPN each 2 μM; Tris-HCl pH 7.4; NB = no binding; read-out: OBP5 F.D. (%) fluorescence displacement percent
observation.type: inhibition at 20 µM (%)
Give bare numbers, in %.

Please review the following examples before continuing.
molecule	unit.of.measurement	inhibition at 20 µM
C=CC(=C)CCC=C(C)C	%	37.1
CCCCCCCCOC(C)=O [Octyl acetate]	%	35.4
CCCCCCCCCCCC(C)=O	%	35.6
COC(=O)c1ccccc1 [Methyl benzoate]	%	30.5
CC(C)=CCCC(C)=CC=O (mixture of isomers)	%	39
CC1=CCC2C(C1)C2(C)C (stereo not shown)	%	41.6

Could you now consider this next molecule?
Exercise: What value of inhibition at 20 µM has been reported for the following molecule? CCCCCCO
Solution: 38.9
